Assayed Target: D(1A) dopamine receptor (Homo sapiens)
Procedure Details: Allosteric Agonists of the Human D1 Dopamine Receptor: qHTS
Condition Parameters: HEK293 T-REx D1 cells, calcium flux, agonist mode; at 2 µM
In all, about 360,000 compounds went through this assay and about 3,700 (1%) were called active. No stated cut-off is given here; in the data, active means activation above about 30%; inactive means the rest. Only a selection was taken, and actives are over-represented in it overall.
Labels: active, inactive

>>> group("COC(=O)c1c(NC(C)=O)sc(C(=O)Nc2ccccc2OC)c1C")
"inactive"
>>> group("CCC(NC(=O)c1cc(COc2ccc(F)c(F)c2)on1)c1ccncc1 (centres undefined)")
"inactive"
>>> group("COc1cccc2c1cc1c(=O)n(CC(=O)N3CCN(c4cccc(Cl)c4)CC3)nc(C)n12")
"inactive"
>>> group("CCOC(=O)c1cc2c(=O)n3ccccc3nc2n(Cc2ccco2)c1=NC(=O)c1ccc(F)cc1")
"inactive"
>>> group("CCc1ccc(NC(=O)CN2CCC(C(=O)c3ccc(OC)cc3)CC2)cc1")
"inactive"
>>> group("COc1ccc(Cl)cc1NC(=O)c1sc2nc3c(cc2c1N)CN(C)CC3")
"inactive"
>>> group("Cc1cccc(N2CCN(S(=O)(=O)c3ccc4[nH]c5c(c4c3)CCCCC5)CC2)c1C")
"inactive"
>>> group("COc1ccccc1-c1noc(-c2ccc(NCc3ccccc3)c([N+](=O)[O-])c2)n1")
"inactive"
>>> group("CC1=C(c2ccc(C)cc2)S(=O)(=O)NC1=NCCCN1CCN(c2cc(C)ccc2C)CC1")
"inactive"
>>> group("CCOC(=O)CC1COCCN1C(=O)c1cc(COc2ccc(F)c(F)c2)on1 (centres undefined)")
"active"
>>> group("CC(C)c1ccccc1OCC(O)CN(CC(O)COc1cccc2ccccc12)C(C)C (centres undefined)")
"inactive"
>>> group("Cc1ccccc1Nc1c(-c2ccccc2)nc2ncccn12")
"inactive"
>>> group("O=C(c1cc(COc2ccc(F)cc2F)on1)N1CCOCC1")
"inactive"
>>> group("Cc1c(CCOC(=O)CC23CC4CC(CC(C)(C4)C2)C3)sc[n+]1Cc1ccc([N+](=O)[O-])cc1")
"active"
